- experiment: qHTS Assay for Lipid Storage Modulators (AID 1519)
- details: Drosophila S3 cells, BODIPY lipid droplet/cell ratio, laser cytometry; measured here: lipid channel max response; cells loaded with oleic acid
Results filed as inconclusive are left out.
property_measured: max response
Include the unit right after the number.

In [3]: df
Out[3]:
                                   molecule  property_measured  reported
0    COC(=O)[C@@H](N)CCCN=C(N)N[N+](=O)[O-]       max response    -8.77%
1        S=C(NC1CCCCC1)N1CCC(c2cnc[nH]2)CC1       max response     6.88%
2  CS(=N)(=O)CC[C@H](N)C(=O)O (some centres not stated)       max response     40.4%
3    COc1ccc(C(c2ccc(OC)cc2)C(Cl)(Cl)Cl)cc1       max response     30.2%

q: // max response lookup, key: C#CCOC(=O)C1=CCCN(C)C1
a: 20.6%

q: Any idea what its max response is? The molecule is O=C(O)[C@@H]1CCN1
a: -13.6%

q: What value of measured max response is listed for NC1CCc2cc(O)c(O)cc2C1 (configuration not stated) ?
a: -19.2%

====

- experiment: qHTS of pediatric cancer cell lines to identify multiple opportunities for drug repurposing: Primary screen for SK-N-SH cells (AID 1347098);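 further: DMSO served as neutral control and bortezomib at 2.3 µM as positive control; on the % scale 0 is the no-effect control and ±100 the full control effect; nearly all actives have a fitted effect of over 65% in size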
- details: SK-N-SH viability, CellTiter-Glo luminescence, 48 h; series mostly up to 57 µM
Results filed as inconclusive are left out. Calls of active or inactive are those of the source. Calls follow the shape of the dose curve; as a rule, active = well fitted cell-killing curve with a large enough effect; inconclusive = small, poorly fitted or top-dose-only effect; inactive = no such curve, though single readings can be large or run the other way.
property_measured: outcome

>>> df
                                   compound  reported
0                 c1ccc2c(CN3CCNCC3)cccc2c1  inactive
1  CC(C)NCC(O)c1ccc([N+](=O)[O-])cc1 (stereo not drawn)  inactive
2  C#CC1(O)CCC2C3CCC4=CC(=O)CCC4(C)C3CCC21C (stereo not drawn)  inactive

====

- experiment: Cell Viability - LYMP2-003 (AID 965);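 further: cells exposed to compounds for 24 h before reading; nearly all actives have a fitted effect of over 50% in size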
- details: LYMP2-003 lymphoblastoid cell viability; series mostly up to 92.2 µM
Records with an inconclusive call do not appear. Calls of active or inactive are those of the source. Calls follow the shape of the dose curve; as a rule, active = well fitted cell-killing curve with a large enough effect; inconclusive = small, poorly fitted or top-dose-only effect, or effect the other way; inactive = flat fitted curve, though single readings scatter.
Answer with one of the outcomes given here: active, inactive

The following compounds have reported results that may help.
>>> df
                                   compound  classification
0                       C1CCC(NC2CCCCC2)CC1        inactive
1  CC(C)(O)C(=O)Nc1ccc([N+](=O)[O-])c(C(F)(F)F)c1        inactive

q: Per the records of this test, what outcome belongs to Nc1ccc(Cl)cc1 ?
a: inactive

q: # fetch the recorded call for CCCCC(CC)COC(=O)c1ccccc1C(=O)OCC(CC)CCCC (configuration not stated) here
a: inactive

q: Record lookup: outcome of this test for CC(=O)[O][Hg][c]1ccccc1 ?
a: active

q: Per the assay record, what outcome was assigned to Nc1ccc(Sc2ccc(N)cc2)cc1 ?
a: inactive

q: Hi, sorry to bother you, what did the test record for CCCCOC(=O)c1ccccc1C(=O)OCc1ccccc1 ?
a: inactive

====

- System: WaGa
- experiment: qHTS assay to identify novel small-molecules to repurpose for Merkel cell carcinoma treatment (AID 1296009); further: nearly all actives have a fitted effect of over 60% in size
- details: MCC and control cell lines, CellTiter-Glo viability, 72 h; series mostly up to 46 µM
Inconclusive results are not listed. The source made the active and inactive calls. Calls come from the whole dose curve; as a rule, active = well fitted inhibition curve with a large enough effect; inconclusive = small, poorly fitted or top-dose-only effect; inactive = flat fitted curve, though single readings scatter.
Your reply should match one of these outcome classes. active, inactive

Known results for molecules:
                                   molecule  classification
0                 CC[C@@H](C(N)=O)N1CCCC1=O        inactive
1  CCN(CC)C(=O)c1ccc(C2=CC3(CCNCC3)Oc3cccc(O)c32)cc1        inactive
2  c1cc2c(cc1[C@H]1OC[C@H]3[C@H]1CO[C@H]3c1ccc3c(c1)OCO3)OCO2        inactive
3        NC1CC1c1ccccc1 (centres undefined)        inactive
4  O=C(N[C@@H](COc1ccc2[nH]c(=O)[nH]c2c1)c1ccccc1)c1cccn(Cc2ccc(F)c(F)c2)c1=O        inactive
5  CC(=O)N(C)c1cccc(-c2ccnc3c(C(=O)c4cccs4)cnn23)c1        inactive
6  Cc1[nH]nc2ccc(-c3cncc(OC[C@@H](N)Cc4c[nH]c5ccccc45)c3)cc12          active
7  COc1ccc2c(c[n+](C)c3c4cc5c(cc4ccc23)OCO5)c1OC          active

Switching to the query record.
q: Dear all, I need the recorded test outcome for CC(C)(O)C=CC(=O)[C@](C)(O)[C@H]1[C@H](O)C[C@]2(C)[C@@H]3CC=C4[C@@H](C=C(O)C(=O)C4(C)C)[C@]3(C)C(=O)C[C@@]12C , thank you.
a: active
